organism: Homo sapiens; experiment: Selectivity ratio of IC50 for human N-terminal His6-tagged epithelial 15-lipoxygenase-2 over IC50 for human N-terminal His6-tagged reticulocyte 15-lipoxygenase-1
Measured Ratio IC50 accompanies every entry in the list below.

Example compounds with recorded Ratio IC50:
Smiles notation	Parameter measured	Result
O=C(OCC#CCSc1nnc(-c2cccc3ccccc23)o1)c1ccc(F)c(F)c1	Ratio IC50	> 7500
O=C(OCC#CCSc1nnc(-c2cccc3ccccc23)o1)c1cc2ccccc2s1	Ratio IC50	> 7500
O=C(OCC#CCSc1nnc(-c2cccc3ccccc23)o1)c1ccc(OC(F)(F)F)cc1	Ratio IC50	> 7500
O=C(OCC#CCSc1nnc(-c2ccc(Cl)cc2)o1)c1ccc(F)cc1	Ratio IC50	> 7500

Q. Please report the recorded Ratio IC50 for O=C(OCC#CCSc1nnc(-c2cccc3ccccc23)o1)c1ccccc1 .
A. > 7500

Q. Moving on to O=C(OCC#CCSc1nnc(-c2cccc3ccccc23)o1)c1ccc(C(F)(F)F)cc1
A. > 7500
